Where do the numbers come from? From PubChem BioAssay AID1224904.

molecules and their reported activity change, negative = inhibition
# assay summary: DUX4 transcriptional activity inhibition in cells – 293T cells, Gaussia and Italica luciferase, primary screen (AID 1224904);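 on activity change, negative = inhibition: 0% = median of neutral control wells and -100% = median of positive control wells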
# condition set: 293T-iDUX4 ZSCAN4-Gaussia luciferase reporter, 24 h; measured here: Italica tet-on control reporter; stronger effect = lower value; concentration not given here
Out of some 37,000 compounds screened, about 290 (0.78%) were called active. Another 10% or so got no clear call; they are omitted. For the sample, actives were picked, then their nearest neighbours and some compounds at random.
Write down the numeric answer in % and omit the unit.

Tell us which activity change, negative = inhibition value is on record for Cc1ccccc1S(=O)(=O)N(C)C[C@@H]1OCc2ccccc2-c2c(n(C)c3ccccc23)C(=O)N([C@H](C)CO)C[C@H]1C
-6.75

Output measured activity change, negative = inhibition for this item: C[C@@H]1CN([C@@H](C)CO)C(=O)c2c(c3ccccc3n2C)-c2ccccc2CO[C@@H]1CN(C)S(=O)(=O)CC(F)(F)F
1.21

Return reported activity change, negative = inhibition. Input molecule: C[C@@H]1CN([C@@H](C)CO)C(=O)c2c(c3ccccc3n2C)-c2ccccc2CO[C@H]1CN(C)Cc1cccc(C(=O)O)c1
-8.31

Quick one: give measured activity change, negative = inhibition for C[C@H](CO)N1C[C@H](C)[C@@H](CN(C)Cc2ccc(C(F)(F)F)cc2)OCc2ccccc2-c2c(n(C)c3ccccc23)C1=O
-11

* * *

The entries below come with measured Gaussia minus Italica difference values attached.
# assay summary: DUX4 transcriptional activity inhibition in cells – 293T cells, Gaussia and Italica luciferase, primary screen (AID 1224904)
# condition set: 293T-iDUX4 ZSCAN4-Gaussia luciferase reporter, 24 h; measured here: selective DUX4 reporter inhibition; stronger effect = lower value; concentration not given here
About 290 (0.78%) of roughly 37,000 compounds were called active. Inconclusive results (about 10%) are left out. The sample as a whole holds a higher share of actives than the screen did.
Number only, in %; omit the unit.

Below, 2 compounds whose answers are already recorded.
C[C@@H]1CN([C@@H](C)CO)C(=O)c2c(c3ccccc3n2C)-c2ccccc2CO[C@@H]1CN(C)Cc1cccc(C(=O)O)c1 :: 2.36
C[C@@H]1CN([C@@H](C)CO)C(=O)c2c(c3ccccc3n2C)-c2ccccc2CO[C@H]1CN(C)S(=O)(=O)c1cccs1 :: -4.37

Could you please provide reported Gaussia minus Italica difference for O=C(CC1CC1)Nc1ccc2c(c1)[C@@H]1C[C@@H](CC(=O)NC3CCCCC3)O[C@H](CO)[C@@H]1O2 ? Thanks!
-0.425

Please list Gaussia minus Italica difference recorded for the compound C[C@@H]1CN([C@@H](C)CO)C(=O)c2c(c3ccccc3n2C)-c2ccccc2CO[C@@H]1CN(C)Cc1ccc2c(c1)OCCN2C
-4.27

* * *

# assay summary: DUX4 transcriptional activity inhibition in cells – 293T cells, Gaussia and Italica luciferase, primary screen (AID 1224904);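 on activity change, negative = inhibition: 0% = median of neutral control wells and -100% = median of positive control wells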
# condition set: 293T-iDUX4 ZSCAN4-Gaussia luciferase reporter, 24 h; measured here: Italica tet-on control reporter; stronger effect = lower value; concentration not given here
In all, about 37,000 compounds went through this assay and about 290 (0.78%) were called active. Not shown: some 10% with an inconclusive outcome. The sample as a whole holds a higher share of actives than the screen did.
property name: activity change, negative = inhibition (%)
Express the result in % but write the number alone.

Consider the following illustrative entries.
COCC#Cc1cnc2c(c1)C(=O)N([C@H](C)CO)C[C@H](C)[C@H](CN(C)Cc1ccc(-c3ccccc3)cc1)O2 :: -1.59
CCCNC(=O)Nc1ccc2c(c1)C(=O)N(C)C[C@H](OC)[C@H](C)CN[C@@H](C)CO2 :: 4.45
CN1C(=O)c2cc(NS(=O)(=O)c3ccc(Cl)cc3)ccc2OC[C@H]2O[C@@H](CC(=O)O)CC[C@H]21 :: -0.461

Turning now to a further record.
Tell me activity change, negative = inhibition reported for O=C(CCN1CCCCC1)NCC[C@@H]1CC[C@H](NS(=O)(=O)c2cccc(Cl)c2)[C@H](CO)O1
-7.23

* * *

# assay summary: DUX4 transcriptional activity inhibition in cells – 293T cells, Gaussia and Italica luciferase, primary screen (AID 1224904);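 on activity change, negative = inhibition: 0% = median of neutral control wells and -100% = median of positive control wells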
# condition set: 293T-iDUX4 ZSCAN4-Gaussia luciferase reporter, 24 h; stronger effect = lower value; concentration not given here
The campaign covered roughly 37,000 compounds. About 290 (0.78%) were called active. Not shown: some 10% with an inconclusive outcome. The sample holds actives, similar compounds and a random draw of the others, so the mix is not that of the screen.
compounds and their reported activity change, negative = inhibition
Numbers only; they are read as %.

# example entries with known answers
CCCNC(=O)C[C@@H]1CC[C@H]2[C@H](COc3ccc(NS(=O)(=O)c4ccccc4C)cc3C(=O)N2C)O1 :: 1.9
CCCN1C[C@@H](C)[C@H](OC)CN(C)C(=O)c2ccc(NC(=O)C3CCOCC3)cc2OC[C@@H]1C :: 2.85
O=C(NCC1CC1)[C@@H]1[C@@H](CO)[C@@H]2Cn3c(ccc(-c4ccncc4)c3=O)[C@@H]2N1Cc1cocn1 :: -0.331

For the compound CCCNC(=O)N1C[C@@H]2[C@H](c3ccccc31)[C@@H](CO)N2C(=O)NC(C)C , give its reported activity change, negative = inhibition.
-3.62

Note down activity change, negative = inhibition recorded for O=C(C[C@@H]1CC[C@@H]2[C@H](COC[C@H](O)CN2Cc2cccc(F)c2)O1)NCc1ccncc1
6.79

Hello, please tell me recorded activity change, negative = inhibition for this one: CCCNC(=O)N1C[C@@H](O)COC[C@H]2O[C@H](CC(=O)NCCCN3CCOCC3)CC[C@@H]21
5.88

Please report the measured activity change, negative = inhibition for CO[C@@H](CN(C)C(=O)Nc1ccc(F)cc1)[C@H](C)CN(Cc1ccccc1Cl)[C@@H](C)CO
1.39

Complete the entry with activity change, negative = inhibition for O=C(C[C@@H]1CC[C@@H](NC(=O)Nc2ccc(F)cc2)[C@@H](CO)O1)NCCN1CCCC1
3.27

* * *

// reported Gaussia minus Italica difference per item
# assay summary: DUX4 transcriptional activity inhibition in cells – 293T cells, Gaussia and Italica luciferase, primary screen (AID 1224904)
# condition set: 293T-iDUX4 ZSCAN4-Gaussia luciferase reporter, 24 h; measured here: selective DUX4 reporter inhibition; stronger effect = lower value; concentration not given here
Screen size: about 37,000 compounds; about 290 (0.78%) were called active. Inconclusive results (about 10%) are left out. Shown is part of a subset that was picked to be rich in actives.
Give just the numeric value; % need not be written.

O=C(CC(F)(F)F)N1C[C@H]2[C@@H](c3ccccc31)[C@H](CO)N2C(=O)Cc1cccnc1 :: 2.22
Cc1noc(C)c1NC(=O)N[C@@H]1C=C[C@H](CC(=O)N2CCCCC2)O[C@H]1CO :: 4.2
O=C(C1CCC1)N1CC2(C1)[C@H](c1ccccc1)[C@H](CO)N2Cc1nccs1 :: 10.6

Answer with the recorded Gaussia minus Italica difference for the compound listed here: C[C@H](O)C#Cc1ccc([C@@H]2[C@H](CO)N3CCCCN(CC4CC4)C[C@@H]23)cc1
-4.76

Please indicate Gaussia minus Italica difference recorded for CCCNC(=O)N(C)C[C@H]1Oc2ncc(-c3ccc(C(=O)N(C)C)cc3)cc2C(=O)N([C@@H](C)CO)C[C@@H]1C
-6.14

Fill in reported Gaussia minus Italica difference for this entry: O=C1CCC(=O)N[C@H](c2ccccc2)C/C=C\CCN1
0.183

Entry CC=Cc1ccc2n(c1=O)C[C@@H]1[C@@H](CO)[C@H](C(=O)NCCCN3CCOCC3)[C@H]2N1Cc1cocn1 (mixture of isomers) needs its Gaussia minus Italica difference filled in; supply it.
-6.07

Please give measured Gaussia minus Italica difference of the following entry: CO[C@@H]1CN(C)C(=O)c2cc(NS(=O)(=O)c3cn(C)cn3)ccc2OC[C@@H](C)N(CCC(F)(F)F)C[C@H]1C
0.0206

* * *

# assay summary: DUX4 transcriptional activity inhibition in cells – 293T cells, Gaussia and Italica luciferase, primary screen (AID 1224904);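 on activity change, negative = inhibition: 0% = median of neutral control wells and -100% = median of positive control wells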
# condition set: 293T-iDUX4 ZSCAN4-Gaussia luciferase reporter, 24 h; measured here: Italica tet-on control reporter; stronger effect = lower value; concentration not given here
Among all 37,000 compounds or so, about 290 (0.78%) were called active. Not shown: some 10% with an inconclusive outcome. The sample holds actives, similar compounds and a random draw of the others, so the mix is not that of the screen.
Item-by-item account of activity change, negative = inhibition
Quick note: give the figure in %, leave out the unit.

Examples from the recorded data:
CCCN1C[C@@H](C)[C@H](OC)CN(C)C(=O)c2ccc(NC(=O)C3CCOCC3)cc2OC[C@@H]1C :: 6.21
CN1[C@@H]2c3ccc(-c4ccc(F)cc4)c(=O)n3C[C@H]1[C@H](CO)[C@H]2C(=O)NC1CCC1 :: -1.88
Cc1noc(C)c1NC(=O)N[C@@H]1C=C[C@H](CC(=O)N2CCCCC2)O[C@H]1CO :: 1.64
O=C(C1CCCCC1)N1CC(=O)N2[C@H](CO)[C@@H](c3ccc(-c4ccccc4F)cc3)[C@@H]2C1 :: -1.6
Cc1ccc(S(=O)(=O)N(C)C[C@H]2OCc3ccccc3-c3ccccc3C(=O)N([C@@H](C)CO)C[C@@H]2C)cc1 :: 2.48

For the molecule C[C@H](NC(=O)C[C@H]1C=C[C@H](NS(=O)(=O)c2cccc(F)c2)[C@@H](CO)O1)c1ccccc1 , report activity change, negative = inhibition.
1.12

Return reported activity change, negative = inhibition. Input molecule: C[C@H](NC(=O)C[C@@H]1C=C[C@H](NC(=O)CN2CCOCC2)[C@H](CO)O1)c1ccccc1
1.16
